Values were extracted from paper PMC3134342.

# Assay target: At-A/N-InvG (Arabidopsis thaliana, UniProt Q9LQF2)
# Sequence (Q9LQF2 whole entry): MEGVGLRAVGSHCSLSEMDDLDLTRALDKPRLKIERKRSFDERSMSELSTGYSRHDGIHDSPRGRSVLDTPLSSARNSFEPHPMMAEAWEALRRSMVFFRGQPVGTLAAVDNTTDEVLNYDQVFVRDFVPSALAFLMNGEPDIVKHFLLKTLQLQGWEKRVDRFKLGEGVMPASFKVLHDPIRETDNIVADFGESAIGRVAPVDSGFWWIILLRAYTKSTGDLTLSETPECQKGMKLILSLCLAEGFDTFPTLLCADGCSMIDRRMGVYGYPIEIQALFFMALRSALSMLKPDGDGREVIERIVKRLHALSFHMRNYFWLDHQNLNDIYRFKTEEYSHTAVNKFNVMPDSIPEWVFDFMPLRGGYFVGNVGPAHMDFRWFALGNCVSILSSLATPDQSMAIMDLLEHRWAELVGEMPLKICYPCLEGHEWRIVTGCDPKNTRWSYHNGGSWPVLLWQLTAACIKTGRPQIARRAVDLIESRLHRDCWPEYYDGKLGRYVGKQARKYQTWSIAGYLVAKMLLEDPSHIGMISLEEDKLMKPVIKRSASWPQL
# Test protocol: inhibition of sucrose hydrolysis, fructose by HPAEC-PAD
Readout: IC50

Given item NC(CO)(CO)CO , the value recorded as its IC50 is 25 to 30 mM
